Reported monocytes is given for each of the following substances.
Test: Tolerability in Sprague-Dawley rats: hematology assays (Example 44)
Format: in vivo
Details: 50 mg/kg s.c. twice per week for 6 weeks, blood
Strand notation (5' to 3'): a small letter for the sugar, then the base; units joined by * are phosphorothioate-linked, units joined directly phosphodiester-linked; [ ] holds rarer units or linkages, { } end groups; capitals alone tell only the bases. e = 2'-O-(2-methoxyethyl) (MOE); [5mC] = 5-methylcytosine; d = 2'-deoxy (DNA)
# value in %; strip the unit string

In plain terms, ISIS 449711: 3-8-3, 4-8-4, 2-10-2, 3-10-3 or 4-10-4 MOE microwalk gapmer (Table 46) (antisense eA*e[5mC]*dA*dG*dT*dT*dT*d[5mC]*dT*dG*dG*d[5mC]*eA*eG) has a documented monocytes of 2
